system: Brassica rapa subsp. oleifera; experiment: Herbicidal activity against Brassica rapa subsp. oleifera assessed as inhibition effect at 1500 g/ha sprayed to the stem and leaves after seed germination; format: functional
inhibition at 1500 g/ha below 20% gives F; inhibition at 1500 g/ha at or above it gives T.

- CCOC(=O)/C(C#N)=C(/Nc1ccc(C(F)(F)F)cc1)N[C@H](C)c1ccccc1: F
- CCOC(=O)/C(C#N)=C(/Nc1ccc([N+](=O)[O-])cc1)N[C@@H](C)c1ccccc1: T
- CCOC(=O)/C(C#N)=C(/Nc1ccc([N+](=O)[O-])cc1)N[C@H](C)c1ccccc1: F
- CCOC(=O)/C(C#N)=C(/NNC(=O)c1cc(OC)c(OC)c(OC)c1)N[C@H](C)c1ccccc1: F
- CCOC(=O)/C(C#N)=C(/Nc1ccc(Br)cc1)N[C@H](C)c1ccccc1: F
- CCOC(=O)/C(C#N)=C(/NNC(=O)c1cc(OC)c(OC)c(OC)c1)N[C@@H](C)c1ccccc1: F
- CCOC(=O)/C(C#N)=C(/Nc1ccc(C(F)(F)F)cc1)N[C@@H](C)c1ccccc1: T
- CCOC(=O)/C(C#N)=C(/Nc1ccc(Br)cc1)N[C@@H](C)c1ccccc1: T
